Target: 5HTR2B (Homo sapiens)
Sequence (P41595 whole entry): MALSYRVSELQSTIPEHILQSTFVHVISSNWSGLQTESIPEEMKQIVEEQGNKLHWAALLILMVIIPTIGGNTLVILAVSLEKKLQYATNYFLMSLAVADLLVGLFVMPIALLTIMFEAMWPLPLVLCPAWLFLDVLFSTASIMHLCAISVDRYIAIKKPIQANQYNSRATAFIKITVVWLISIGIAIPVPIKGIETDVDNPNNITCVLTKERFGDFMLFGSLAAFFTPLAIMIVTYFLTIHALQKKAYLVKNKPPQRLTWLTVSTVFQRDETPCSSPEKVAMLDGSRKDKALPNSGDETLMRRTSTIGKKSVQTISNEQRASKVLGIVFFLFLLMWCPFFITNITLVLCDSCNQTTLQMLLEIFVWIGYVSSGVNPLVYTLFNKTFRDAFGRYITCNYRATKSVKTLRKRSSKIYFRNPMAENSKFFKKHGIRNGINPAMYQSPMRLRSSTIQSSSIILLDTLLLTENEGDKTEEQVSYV
Assay: 5HTR2B antagonist activity, calcium mobilization assay in human Maverick/293 cells (serotonin as agonist)
Details: intracellular calcium, emission 525 nm, read-out: Ca assay IC50
Protocol: The 5HTR2B antagonist activity was measured using human Maverick/293 cells in a calcium mobilization assay. […] Intracellular calcium concentration is recorded for 80 seconds by monitoring an emission at a wavelength of 525 nm with an excitation wavelength of 485 nm. Inhibition efficiency of the cell line was determined following the equation: % Inhibition=100%−(D−B)/(S−B)*100%. […]
Measurement kind: IC50 (nM)

>>> assay_result("COc1ccc(S(=O)(=O)N[C@H]2CCOC2)cc1C(=O)Nc1c(Cl)cccc1Cl [Compound 81]")
32
>>> assay_result("COc1ccc(S(=O)(=O)N[C@H]2CCOC2)cc1C(=O)Nc1cc(F)cc(F)c1Cl [Compound 96]")
84
>>> assay_result("COc1ccc(S(=O)(=O)NC2COC2)cc1C(=O)Nc1ccc(F)cc1 [Compound 43]")
7.2
>>> assay_result("COc1ccc(S(=O)(=O)N[C@H]2CCOC2)cc1C(=O)Nc1c(F)cc(F)cc1Cl [Compound 78]")
2.4
>>> assay_result("COc1ccc(S(=O)(=O)N[C@H]2CCOC2)cc1C(=O)Nc1cccc(OC(F)F)c1 [Compound 107]")
27
>>> assay_result("COc1ccc(S(=O)(=O)NC(C)C(F)(F)F)cc1C(=O)Nc1ccc(F)c(C)n1 (single isomer, unassigned) [Compound 29b]")
4.6
>>> assay_result("COc1cc(F)ccc1NC(=O)c1cc(S(=O)(=O)N[C@H]2CCOC2)ccc1OC [Compound 135]")
0.1
>>> assay_result("COc1ccc(S(=O)(=O)N[C@@H](C)C(N)=O)cc1C(=O)Nc1ccc(F)c(C(F)F)c1 [Compound 34a]")
1.4
>>> assay_result("COc1ccc(S(=O)(=O)NC2CC2)cc1C(=O)Nc1ccc(F)c(C)n1 [Compound 21]")
1.6
>>> assay_result("COc1ccc(S(=O)(=O)N[C@H](C)CO)cc1C(=O)Nc1ccc(F)c(C)c1 [Compound 10b]")
12
>>> assay_result("COc1ccc(S(=O)(=O)NC2CCC[C@H]2O)cc1C(=O)Nc1ccccc1Cl (some centres unmarked) [Compound 61c]")
0.2
>>> assay_result("COc1ccc(S(=O)(=O)N[C@H](C)CO)cc1C(=O)Nc1ccc(F)cc1 [Compound 52b]")
4.5
>>> assay_result("COC[C@H](C)NS(=O)(=O)c1ccc(OC)c(C(=O)Nc2ccc(F)cc2)c1 (single isomer, unassigned) [Compound 40a]")
1.7
>>> assay_result("COc1ccc(S(=O)(=O)N[C@H]2CCOC2)cc1C(=O)Nc1ccccc1OC(F)F [Compound 128]")
1.2
